For each entry below, report its % Activation value.
Target: ΔF508-CFTR (Homo sapiens, UniProt P13569, DEL508-508)
Construct: host or cells: CFBE41o-, doxycycline-inducible
Assay: CFTR cell surface levels using HRP-tagged ΔF508-CFTR expressing CFBE cells, in the presence of a co-corrector
Type: cell-based
Conditions: HRP-tagged ΔF508-CFTR CFBE cells, in the presence of 3 μM co-corrector
Source text: Measuring CFTR Cell Surface Levels Using HRP-Tagged ΔF508-CFTR Expressing CFBE Cells The HRP-tagged ΔF508-CFTR cell assay measures the expression of CFTR-ΔF508 at the plasma membrane. […] When HRP-tagged ΔF508-CFTR is present at the plasma membrane, the HRP enzyme activity can be measured. The amount of CFTR-ΔF508 that can be rescued to the plasma membrane is correlated with the amount of functional enzyme that can be measured. […]
A number alone suffices; assume %.

I am curious: what % Activation value has been reported for "O=C(NS(=O)(=O)N1CCOCC1)c1cc(N2CCC(N3CCOCC3)CC2)c2c(C3CCC3)nn(-c3ccc(F)cc3)c2n1" ? 404.63

I am curious: what % Activation value has been reported for "CC(C)Oc1nccc(-n2nc(C3CCC3)c3c(N4CCC(N5CCOCC5)CC4)cc(C(=O)NS(=O)(=O)N(C)C)nc32)n1" ? 348.55

I am curious: what % Activation value has been reported for "CCS(=O)(=O)NC(=O)c1cc(N2CCC(N3CCOCC3)CC2)c2c(C(C)C)nn(-c3ccc(F)cc3)c2n1" ? 455.9

I am curious: what % Activation value has been reported for "COCC1CCN(c2cc(C(=O)NS(=O)(=O)CCC(=O)O)nc3c2c(C2CCC2)nn3-c2ccccc2)CC1" ? 366.4

I am curious: what % Activation value has been reported for "COC1CCN(c2cc(C(=O)NS(C)(=O)=O)nc3c2c(C(C)C)nn3-c2cccc(N3CCOCC3)n2)CC1" ? 418.27

I am curious: what % Activation value has been reported for "COCCN1CCN(c2ccc(-c3cc(C(=O)NS(=O)(=O)N(C)C)nc4c3c(C3CCC3)nn4C3CCCCC3)cn2)CC1" ? 364.2

I am curious: what % Activation value has been reported for "CC(C)c1nn(-c2ccc(F)cc2)c2nc(C(=O)NS(C)(=O)=O)cc(N3CC4(CCCOC4)C3)c12" ? 248.85

====

Molecular target: CFTR ΔF508 (Homo sapiens, UniProt P13569, DEL508-508)
Construct: bronchial epithelial cells isolated from CF patients homozygous for the CFTR ΔF508 mutation; McGill University; Asterand; University of North Carolina hAEC-CF; host or cells: primary human bronchial epithelial cells from CF patients homozygous for ΔF508, differentiated at air-liquid interface
Sequence (P13569 with tags, fused parts or gaps DEL508-508): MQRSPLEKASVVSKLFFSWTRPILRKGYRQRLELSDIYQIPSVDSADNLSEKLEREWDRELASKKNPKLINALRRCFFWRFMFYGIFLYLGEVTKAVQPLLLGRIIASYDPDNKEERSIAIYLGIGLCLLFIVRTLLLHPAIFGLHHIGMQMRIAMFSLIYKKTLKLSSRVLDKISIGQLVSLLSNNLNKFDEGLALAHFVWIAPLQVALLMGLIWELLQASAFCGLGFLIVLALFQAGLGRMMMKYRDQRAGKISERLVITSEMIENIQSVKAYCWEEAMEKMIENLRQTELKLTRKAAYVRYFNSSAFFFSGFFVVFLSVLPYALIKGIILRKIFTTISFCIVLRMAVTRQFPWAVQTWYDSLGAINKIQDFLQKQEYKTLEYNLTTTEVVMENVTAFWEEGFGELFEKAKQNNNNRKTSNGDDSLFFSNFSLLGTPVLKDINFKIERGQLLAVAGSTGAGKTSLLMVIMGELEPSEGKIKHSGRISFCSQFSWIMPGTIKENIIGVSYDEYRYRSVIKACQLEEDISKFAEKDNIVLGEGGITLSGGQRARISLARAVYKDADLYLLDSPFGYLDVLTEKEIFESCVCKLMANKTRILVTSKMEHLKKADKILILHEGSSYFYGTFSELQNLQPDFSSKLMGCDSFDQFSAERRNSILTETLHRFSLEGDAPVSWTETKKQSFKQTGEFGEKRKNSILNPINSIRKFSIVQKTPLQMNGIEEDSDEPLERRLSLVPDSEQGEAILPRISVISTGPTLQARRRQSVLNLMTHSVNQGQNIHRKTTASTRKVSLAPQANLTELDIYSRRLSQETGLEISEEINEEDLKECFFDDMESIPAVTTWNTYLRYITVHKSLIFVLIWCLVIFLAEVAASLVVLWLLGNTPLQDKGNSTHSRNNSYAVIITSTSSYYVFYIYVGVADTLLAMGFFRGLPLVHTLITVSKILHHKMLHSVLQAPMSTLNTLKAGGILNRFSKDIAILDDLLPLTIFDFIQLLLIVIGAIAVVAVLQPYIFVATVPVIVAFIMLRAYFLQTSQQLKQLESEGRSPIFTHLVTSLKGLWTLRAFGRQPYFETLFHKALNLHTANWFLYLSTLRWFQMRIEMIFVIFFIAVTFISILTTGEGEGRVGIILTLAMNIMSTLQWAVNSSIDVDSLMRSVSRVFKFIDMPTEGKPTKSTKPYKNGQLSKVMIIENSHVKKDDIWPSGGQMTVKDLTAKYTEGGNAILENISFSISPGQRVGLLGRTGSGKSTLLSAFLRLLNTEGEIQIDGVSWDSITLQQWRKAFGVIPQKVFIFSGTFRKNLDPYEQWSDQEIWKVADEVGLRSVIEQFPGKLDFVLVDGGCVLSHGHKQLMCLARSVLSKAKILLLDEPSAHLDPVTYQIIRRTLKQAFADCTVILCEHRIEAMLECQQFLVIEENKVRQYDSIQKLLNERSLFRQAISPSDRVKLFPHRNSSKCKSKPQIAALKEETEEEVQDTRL
Assay: Chronic TECC assay, primary bronchial epithelial cells of CF patients homozygous for CFTR ΔF508 (corrector, co-corrector and potentiator)
Assay type: cell-based
Conditions: chronic TECC; test compound at 1 μM; Ieq = calculations based on the maximum current
For each entry below, report its % Activity at 1 μM (Ieq*) value.
A number alone suffices; assume %.

I am curious: what % Activity at 1 μM (Ieq*) value has been reported for CN(c1ccc(-c2cc(C(=O)NS(C)(=O)=O)nc3c2c(C2CCC2)nn3-c2ccccc2)cn1)C1CCOCC1 [Compound 74] ? 240

I am curious: what % Activity at 1 μM (Ieq*) value has been reported for COCCN(C)c1ccc(-c2cc(C(=O)NS(C)(=O)=O)nc3c2c(C(C)C)nn3-c2cccc(N3CCOCC3)c2)cn1 [Compound 86] ? 210

I am curious: what % Activity at 1 μM (Ieq*) value has been reported for CCS(=O)(=O)NC(=O)c1cc(-c2ccc(N3CCOCC3)cc2)c2c(C)nn(-c3ccc(F)cc3F)c2n1 [Compound 113] ? 310

I am curious: what % Activity at 1 μM (Ieq*) value has been reported for COC1CCN(c2cc(C(=O)NS(C)(=O)=O)nc3c2c(C(C)C)nn3-c2cccc(C)c2)CC1 [Compound 117] ? 81

Sourced from patent US10259810B2
